Target system: UniProt P07861
Sequence (P07861 whole entry): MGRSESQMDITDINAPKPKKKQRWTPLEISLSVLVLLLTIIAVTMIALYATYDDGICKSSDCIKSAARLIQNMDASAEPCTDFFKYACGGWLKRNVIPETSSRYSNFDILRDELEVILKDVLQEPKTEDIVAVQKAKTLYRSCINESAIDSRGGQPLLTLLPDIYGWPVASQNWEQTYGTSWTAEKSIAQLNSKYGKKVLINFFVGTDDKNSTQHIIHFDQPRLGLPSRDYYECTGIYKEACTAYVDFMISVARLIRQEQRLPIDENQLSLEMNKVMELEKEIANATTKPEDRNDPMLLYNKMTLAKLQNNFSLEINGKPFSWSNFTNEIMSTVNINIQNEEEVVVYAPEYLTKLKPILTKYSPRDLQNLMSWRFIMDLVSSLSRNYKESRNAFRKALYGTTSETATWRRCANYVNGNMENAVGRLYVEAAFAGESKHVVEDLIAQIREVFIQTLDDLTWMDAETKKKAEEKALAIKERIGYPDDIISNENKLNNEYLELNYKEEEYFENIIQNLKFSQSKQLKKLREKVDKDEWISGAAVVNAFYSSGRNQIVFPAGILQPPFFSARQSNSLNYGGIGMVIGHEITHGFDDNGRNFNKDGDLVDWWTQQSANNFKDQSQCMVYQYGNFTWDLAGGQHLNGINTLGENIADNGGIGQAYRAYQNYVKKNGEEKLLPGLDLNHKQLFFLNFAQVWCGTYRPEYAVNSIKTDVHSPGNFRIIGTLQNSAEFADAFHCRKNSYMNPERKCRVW
Experiment description: Inhibition of enkephalinase activity in synaptic membranes prepared from rat striatum
Assay type: cell membranes
Please go through the items and note down their IC50.

Known results for compounds:
Compound: CCOC(=O)C(Cc1ccccc1)CC(Cc1ccccc1)C(=O)NCCC(=O)O (centres undefined)
IC50: > 1 µM
--
Compound: N#CCCNC(=O)C(Cc1ccccc1)CC(Cc1ccccc1)C(=O)O (centres undefined)
IC50: > 1 µM
--
Compound: O=C(O)CCNC(=O)[C@@H](Cc1ccccc1)C[C@H](Cc1ccccc1)C(=O)O
IC50: > 1 µM

What value of IC50 has been reported for the following compound? CC(C)C[C@H](NP(=O)(O)O[C@@H]1O[C@@H](C)[C@H](O)[C@@H](O)[C@H]1O)C(=O)N[C@@H](Cc1c[nH]c2ccccc12)C(=O)O
0.0006 µM
